molecular target: Cytochrome P450 2C9 (Homo sapiens, UniProt P11712); assay: Inhibition of CYP2C9 in human liver microsomes using diclofenac as substrate incubated for 10 mins in presence of NADPH by LC-MS/MS analysis; format: ADME, Microsome
Sequence (P11712 whole entry): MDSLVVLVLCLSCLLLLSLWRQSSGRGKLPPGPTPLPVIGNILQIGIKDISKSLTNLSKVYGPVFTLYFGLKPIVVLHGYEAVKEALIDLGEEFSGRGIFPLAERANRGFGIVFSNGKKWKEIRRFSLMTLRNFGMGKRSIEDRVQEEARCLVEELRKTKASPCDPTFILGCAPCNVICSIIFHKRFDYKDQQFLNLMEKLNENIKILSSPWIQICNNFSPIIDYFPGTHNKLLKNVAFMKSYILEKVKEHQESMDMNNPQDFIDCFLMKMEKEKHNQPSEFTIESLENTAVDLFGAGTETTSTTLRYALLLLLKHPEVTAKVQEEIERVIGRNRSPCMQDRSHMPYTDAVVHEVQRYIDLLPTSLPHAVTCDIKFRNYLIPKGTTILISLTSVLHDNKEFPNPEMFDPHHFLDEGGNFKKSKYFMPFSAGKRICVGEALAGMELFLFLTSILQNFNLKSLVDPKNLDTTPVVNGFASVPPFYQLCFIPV
# key: entry, value: IC50

Example cases with answers are listed next.
> print(dat)
                         compound.structure  endpoint  meas.value
1  COc1cccc(F)c1CNc1ccc(-c2cnc(C)nc2C)c2nncn12      IC50     > 20 µM
2  CS(=O)(=O)c1ccc(-c2cnc(NCc3ccco3)n3cnnc23)cc1      IC50     > 50 µM
3  Cc1ncccc1-c1cnc(NCc2c(F)ccc3c2CCO3)n2cnnc12      IC50     > 20 µM

IN: Specify reported IC50 for the molecule shown: "c1cncc(-c2cnc(NCc3cccc4c3CCO4)n3cnnc23)c1"
OUT: 12 µM

IN: Specify reported IC50 for the molecule shown: "c1cc(CNc2ncc(-c3ccncc3)c3nncn23)c2c(c1)OCC2"
OUT: > 50 µM

###

test: Terminal half life in ICR (CD-1) mouse at 2 mg/kg, po or 1 mg/kg, iv after 1 week by LC-MS/MS analysis; assay type: ADME, organism-based; settings: in vivo, time 1 weeks, read-out: beta t1/2 (converted)
endpoint: half-life (h)

a. Cc1ncccc1-c1cnc(NCc2c(F)ccc3c2CCO3)n2cnnc12
b. COc1cccc(F)c1CNc1ccc(-c2cnc(C)nc2C)c2nncn12
IN: Look at a and b . Which one has the lower recorded half-life number? Indicate which entry you chose by stating its label.
OUT: a

###

test: Plasma clearance in rat assessed as hepatic extraction; assay type: ADME, cell-free; conditions: read-out: ERH
endpoint: hepatic extraction ratio
// no unit string in output, number only

IN: Specify reported hepatic extraction ratio for the compound shown: "Cc1ncccc1-c1cnc(NCc2c(F)ccc3c2CCO3)n2cnnc12"
OUT: 0.18

###

experiment: Plasma protein binding in human assessed as unbound fraction at 1 uM measured after 6 hrs LC-MS/MS analysis; assay type: ADME, cell-free
endpoint: fraction unbound at 6 h, 1 µM

A. COc1cccc(F)c1CNc1ccc(-c2cnc(C)nc2C)c2nncn12
B. Cc1ncccc1-c1cnc(NCc2c(F)ccc3c2CCO3)n2cnnc12
IN: Of A and B , which one carries the higher reported fraction unbound at 6 h, 1 µM? Indicate which entry you chose by stating its label.
OUT: A
(A: 0.13, B: 0.08)

###

assay: Ratio of drug level in dog blood to plasma; format: ADME, cell-free, Canis lupus familiaris; settings: whole blood
endpoint: blood plasma ratio
// no unit string in output, number only

IN: Specify reported blood plasma ratio for the compound shown: "Cc1ncccc1-c1cnc(NCc2c(F)ccc3c2CCO3)n2cnnc12"
OUT: 0.72

###

experiment: Plasma clearance in rat; format: ADME, cell-free
endpoint: clearance (mL/min/kg)

1. Cc1ncccc1-c1cnc(NCc2c(F)ccc3c2CCO3)n2cnnc12
2. COc1cccc(F)c1CNc1ccc(-c2cnc(C)nc2C)c2nncn12
IN: Look at 1 and 2 . Which one has the lower recorded clearance number? Indicate which entry you chose by stating its label.
OUT: 1

###

molecular target: Cytochrome P450 2D6 (Homo sapiens, UniProt P10635); assay: Inhibition of CYP2D6 in human liver microsomes using bufuralol as substrate incubated for 10 mins in presence of NADPH by LC-MS/MS analysis; type: ADME, Microsome
Sequence (P10635 whole entry): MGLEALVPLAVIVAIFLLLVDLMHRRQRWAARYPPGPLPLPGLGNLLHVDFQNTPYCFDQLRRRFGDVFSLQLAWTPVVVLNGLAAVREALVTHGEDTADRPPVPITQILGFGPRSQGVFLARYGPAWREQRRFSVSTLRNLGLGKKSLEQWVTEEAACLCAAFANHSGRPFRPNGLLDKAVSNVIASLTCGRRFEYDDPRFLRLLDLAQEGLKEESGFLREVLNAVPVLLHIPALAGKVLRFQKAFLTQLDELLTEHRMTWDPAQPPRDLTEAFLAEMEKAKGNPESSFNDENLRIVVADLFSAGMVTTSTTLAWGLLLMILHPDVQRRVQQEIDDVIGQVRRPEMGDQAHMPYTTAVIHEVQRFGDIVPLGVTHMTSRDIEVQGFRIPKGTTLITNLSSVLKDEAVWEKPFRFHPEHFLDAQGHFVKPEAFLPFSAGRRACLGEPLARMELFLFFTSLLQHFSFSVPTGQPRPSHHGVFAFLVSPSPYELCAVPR
pIC50: −log10 of the molar value.
endpoint: pIC50

Example cases with answers are listed next.
> print(dat)
                         compound.structure  meas.value
1  CS(=O)(=O)c1ccc(-c2cnc(NCc3ccco3)n3cnnc23)cc1      < 4.30
2  Cc1ncccc1-c1cnc(NCc2c(F)ccc3c2CCO3)n2cnnc12      < 4.70
3  COc1cccc(F)c1CNc1ccc(-c2cnc(C)nc2C)c2nncn12      < 4.70

With those in mind, consider the next molecule.
IN: Specify reported pIC50 for the molecule shown: "COc1cccc(F)c1CNc1ccc(-c2cccnc2C)c2nncn12"
OUT: < 4.30
